# Tested on: Saccharomyces cerevisiae BY4741 SeMeCo community
# Assay: z-score of subpopulation abundance vs DMSO median, subpopulation auxotrophic for M; higher = larger share of this subpopulation than in DMSO controls
# Condition Label: 10 µM; 24 h; SM minimal medium; subpopulation (auxotrophy): M
Counter-ions that a name gives are not always drawn.
Kindly return Met if reported z-score of subpopulation abundance is no lower than -0.3; return Not met if it is lower.

Solved entries:
Cc1ccc2c(Cl)cc(Cl)c(O)c2n1; Met
CN1C(C(=O)Nc2ccccn2)=C(O)c2ccccc2S1(=O)=O; Met
NC(=O)C(c1ccccc1)(c1ccccc1)[C@@H]1CCN(CCc2ccc3c(c2)CCO3)C1; Met
Cc1onc(-c2c(Cl)cccc2Cl)c1C(=O)N[C@@H]1C(=O)N2[C@@H]1SC(C)(C)[C@@H]2C(=O)O [Dicloxacillin Sodium]; Met
NC(=O)N1c2ccccc2CC(=O)c2ccccc21 [Oxcarbazepine]; Not met

INPUT: Would you say C[C@]12CC[C@@H]3c4ccc(O)cc4CC[C@H]3[C@@H]1CC[C@@H]2OC(=O)CCC1CCCC1 [Estradiol Cypionate] shows z-score of subpopulation abundance at minimum -0.3?
OUTPUT: Not met

INPUT: Would you say CC/C(=C(\c1ccccc1)c1ccc(OCCN(C)C)cc1)c1ccccc1 [Tamoxifen] shows z-score of subpopulation abundance at minimum -0.3?
OUTPUT: Met

INPUT: Would you say Clc1ccc(CCC(Cn2ccnc2)Sc2c(Cl)cccc2Cl)cc1 (stereo not given) [Butoconazole nitrate] shows z-score of subpopulation abundance at minimum -0.3?
OUTPUT: Not met

INPUT: Would you say CCN(CC)CCOc1ccc(C(=C(Cl)c2ccccc2)c2ccccc2)cc1 [Clomifene citrate] shows z-score of subpopulation abundance at minimum -0.3?
OUTPUT: Met

INPUT: Would you say CCCc1nn(C)c2c(=O)[nH]c(-c3cc(S(=O)(=O)N4CCN(C)CC4)ccc3OCC)nc12 [Sildenafil] shows z-score of subpopulation abundance at minimum -0.3?
OUTPUT: Not met

INPUT: Would you say CS(=O)(=O)c1ccc([C@@H](O)[C@@H](CO)NC(=O)C(Cl)Cl)cc1 shows z-score of subpopulation abundance at minimum -0.3?
OUTPUT: Not met

INPUT: Would you say CC[C@H]1OC(=O)[C@H](C)[C@@H](O[C@H]2C[C@@](C)(OC)[C@@H](O)[C@H](C)O2)[C@H](C)[C@@H](O[C@@H]2O[C@H](C)C[C@H](N(C)C)[C@H]2O)[C@](C)(O)C[C@@H](C)/C(=N\OCOCCOC)[C@H](C)[C@@H](O)[C@]1(C)O shows z-score of subpopulation abundance at minimum -0.3?
OUTPUT: Met

INPUT: Would you say CC/C(=C(\c1ccccc1)c1ccc(OCCN(C)C)cc1)c1ccccc1 [Tamoxifen Citrate] shows z-score of subpopulation abundance at minimum -0.3?
OUTPUT: Not met

INPUT: Would you say CCCCCCCCCCCCCCCCOP(=O)([O-])OCC[N+](C)(C)C shows z-score of subpopulation abundance at minimum -0.3?
OUTPUT: Not met

INPUT: Would you say C=CC1=C(C(=O)O)N2C(=O)[C@@H](NC(=O)/C(=N\OCC(=O)O)c3csc(N)n3)[C@H]2SC1 shows z-score of subpopulation abundance at minimum -0.3?
OUTPUT: Not met

* * *

# Test system: Saccharomyces cerevisiae BY4741 SeMeCo community
# Assay: z-score of subpopulation abundance vs DMSO median, subpopulation auxotrophic for LU; higher = larger share of this subpopulation than in DMSO controls
# Condition Label: 10 µM; 24 h; SM minimal medium; subpopulation (auxotrophy): LU
Where a name gives a salt, the structure may show the parent alone.
Result Type: z-score of subpopulation abundance
Enter the number alone.

C[C@]12CCC(=O)C=C1[C@@H]1C[C@@H]1[C@H]1[C@@H]3[C@@H]4C[C@@H]4[C@@]4(CCC(=O)O4)[C@@]3(C)CC[C@@H]12 [Drospirenone]; 0.11
CN(C/C=C/C#CC(C)(C)C)Cc1cccc2ccccc12 [Terbinafine HCl]; 0.54
Clc1ccc(C(Cn2ccnc2)OCc2csc3c(Cl)cccc23)c(Cl)c1 (stereo not drawn) [Sertaconazole nitrate]; 1.93
CCn1cc(C(=O)O)c(=O)c2cc(F)c(N3CCNCC3)nc21 [Enoxacin Sesquihydrate]; 0.91

INPUT: Give z-score of subpopulation abundance for the following compound: CCN(CC)CCOc1ccc2c(c1)C(=O)c1cc(OCCN(CC)CC)ccc1-2 [Tilorone dihydrochloride]
OUTPUT: -0.27

INPUT: Give z-score of subpopulation abundance for the following compound: CC[C@@H](CO)NCCN[C@@H](CC)CO [Ethambutol 2HCl]
OUTPUT: 1.65

INPUT: Give z-score of subpopulation abundance for the following compound: CCC1(c2ccccc2)C(=O)NCNC1=O [Primidone]
OUTPUT: -0.48

INPUT: Give z-score of subpopulation abundance for the following compound: Oc1c(Cl)cc(Cl)cc1Sc1cc(Cl)cc(Cl)c1O [Bithionol]
OUTPUT: 1.88

* * *

# Test system: Saccharomyces cerevisiae BY4741 SeMeCo community
# Assay: z-score of subpopulation abundance vs DMSO median, subpopulation auxotrophic for HL; higher = larger share of this subpopulation than in DMSO controls
# Condition Label: 10 µM; 24 h; SM minimal medium; subpopulation (auxotrophy): HL
Counter-ions that a name gives are not always drawn.
Result Type: z-score of subpopulation abundance
Enter the number alone.

Example results:
CO[C@@]1(NC(=O)Cc2cccs2)C(=O)N2C(C(=O)O)=C(COC(N)=O)CS[C@@H]21 [Cefoxitin sodium]; -0.41
CN1CCN(CCCN2c3ccccc3Sc3ccc(C(F)(F)F)cc32)CC1 [Trifluoperazine 2HCl]; -0.59
OB1OCc2cc(F)ccc21; 17.6

INPUT: Give z-score of subpopulation abundance for the following molecule: CCCNCC(O)COc1ccccc1C(=O)CCc1ccccc1 (configuration not stated) [Propafenone HCl]
OUTPUT: -0.37

INPUT: Give z-score of subpopulation abundance for the following molecule: Cc1cc(NS(=O)(=O)c2ccc(N)cc2)nc(C)n1
OUTPUT: -0.94

INPUT: Give z-score of subpopulation abundance for the following molecule: CN(C)C[C@@H]1CCn2cc(c3ccccc32)C2=C(C(=O)NC2=O)c2cn(c3ccccc23)CCO1
OUTPUT: 1.61

INPUT: Give z-score of subpopulation abundance for the following molecule: Cc1ncc([N+](=O)[O-])n1CC(O)CCl (configuration not stated)
OUTPUT: 0.53

INPUT: Give z-score of subpopulation abundance for the following molecule: Cc1c(S(=O)(=O)O)oc2c1C(=O)C(=O)c1c-2ccc2c1CCCC2(C)C [Tanshinone IIA sulfonate (sodium)]
OUTPUT: 4.28

INPUT: Give z-score of subpopulation abundance for the following molecule: CCN(CC)C(=O)[C@@]1(c2ccccc2)C[C@H]1CN [Levomilnacipran Hydrochloride]
OUTPUT: -0.6

INPUT: Give z-score of subpopulation abundance for the following molecule: O=C(N[C@H](CO)[C@H](O)c1ccc([N+](=O)[O-])cc1)C(Cl)Cl
OUTPUT: 0.18

INPUT: Give z-score of subpopulation abundance for the following molecule: NC(=O)[C@@H]1CC[C@@H]2CN1C(=O)N2OS(=O)(=O)O [Avibactam sodium]
OUTPUT: -0.05

INPUT: Give z-score of subpopulation abundance for the following molecule: CO/N=C(/C(=O)N[C@@H]1C(=O)N2C(C(=O)OCOC(=O)C(C)(C)C)=C(C)CS[C@H]12)c1csc(N)n1 [Cefetamet pivoxil hydrochloride]
OUTPUT: 1.33

INPUT: Give z-score of subpopulation abundance for the following molecule: O=c1[nH]c2ccccc2n1CCN1CCN(c2cccc(C(F)(F)F)c2)CC1
OUTPUT: -0.75

INPUT: Give z-score of subpopulation abundance for the following molecule: C#CCN(C)Cc1ccccc1 [Pargyline hydrochloride]
OUTPUT: -0.44

INPUT: Give z-score of subpopulation abundance for the following molecule: OC[C@H]1O[C@H](OCC2O[C@@H](O)[C@H](O)[C@@H](O)[C@@H]2O)[C@H](O)[C@@H](O)[C@H]1O (some centres not stated)
OUTPUT: 0.32

INPUT: Give z-score of subpopulation abundance for the following molecule: CC(=O)OCC[N+](C)(C)C [Acetylcholine iodide]
OUTPUT: -0.89

INPUT: Give z-score of subpopulation abundance for the following molecule: COC(=O)Nc1nc2cc(C(=O)c3ccc(F)cc3)ccc2[nH]1
OUTPUT: 0.98

* * *

# Test system: Saccharomyces cerevisiae BY4741 SeMeCo community
# Assay: z-score of subpopulation abundance vs DMSO median, subpopulation auxotrophic for HLM; higher = larger share of this subpopulation than in DMSO controls
# Condition Label: 10 µM; 24 h; SM minimal medium; subpopulation (auxotrophy): HLM
Counter-ions that a name gives are not always drawn.
Measured z-score of subpopulation abundance by item

Example results:
CC1(C)S[C@@H]2[C@H](NC(=O)[C@H](N)c3ccccc3)C(=O)N2[C@H]1C(=O)OCOC(=O)[C@@H]1N2C(=O)C[C@H]2S(=O)(=O)C1(C)C [Sultamicillin]; 1.63
CC[C@@]1(O)C(=O)OCc2c1cc1n(c2=O)Cc2cc3cc(O)ccc3nc2-1 [(S)-10-Hydroxycamptothecin]; 0.07
CN1[C@@H]2CC[C@H]1C[C@@H](OC(c1ccccc1)c1ccccc1)C2 [Benztropine mesylate]; -0.44

Alright, here's another compound for you.
INPUT: Give z-score of subpopulation abundance for the following compound: COc1ccc2cc([C@H](C)C(=O)O)ccc2c1 [Naproxen Sodium]
OUTPUT: 0.18

All values here come from the supplement of paper PMC8975748.
